study_system: HeLa cell extract proteins (Homo sapiens, UniProt Q99720)
Construct: endogenous in cells; host or cells: HeLa cell extract
Sequence (Q99720 whole entry): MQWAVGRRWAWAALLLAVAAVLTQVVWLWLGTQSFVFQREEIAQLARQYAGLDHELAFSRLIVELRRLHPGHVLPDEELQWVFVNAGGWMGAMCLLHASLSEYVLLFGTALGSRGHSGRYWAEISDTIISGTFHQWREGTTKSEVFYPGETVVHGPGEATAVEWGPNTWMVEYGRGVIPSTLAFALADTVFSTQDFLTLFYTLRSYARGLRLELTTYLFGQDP
Format: binding
setup_conditions: HeLa; protein SIGMAR1
Label rule met when fold changes relative to vehicle control is at or above 1; anything below gets rule not met.

compound	category_label
Nc1nc2cccc(-c3ccccc3)c2n1Cc1ccc(Cl)c(Cl)c1 [compound 3]	rule met
Nc1nc2c(c(=O)[nH]1)N(C=O)C(CNc1ccc(C(=O)N[C@@H](CCC(=O)O)C(=O)O)cc1)CN2 (stereo partly drawn) [LEU, leucovorin]	rule met
NCCOCCOCC(=O)Nc1nc2ncc(CNc3ccc(C(=O)NC(CCC(=O)O)C(=O)O)cc3)nc2c(=O)[nH]1 (stereo not drawn) [compound 6]	rule not met
NCCCNc1ccc(C(=O)NC(CCC(=O)O)C(=O)O)cc1 (stereo not drawn) [compound 7]	rule met

###

study_system: PTERIDINE REDUCTASE (TB927.8.2210) (Trypanosoma brucei brucei, UniProt O76290)
Sequence (O76290 entry or part of it): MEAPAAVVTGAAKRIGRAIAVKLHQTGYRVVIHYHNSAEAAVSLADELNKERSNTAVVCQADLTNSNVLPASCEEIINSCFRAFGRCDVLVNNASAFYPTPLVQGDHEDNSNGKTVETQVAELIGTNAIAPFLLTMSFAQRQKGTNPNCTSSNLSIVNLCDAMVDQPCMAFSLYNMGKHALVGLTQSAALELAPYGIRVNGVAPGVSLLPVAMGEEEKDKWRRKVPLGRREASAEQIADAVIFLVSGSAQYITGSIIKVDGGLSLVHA
test_details: Multitargeted bead mixture competition
Type: binding, T. brucei
setup_conditions: protein PTERIDINE REDUCTASE (CZT00009056.1); vehicle control = 1

compound	fold change vs vehicle control
NCCCNc1ccc(C(=O)NC(CCC(=O)O)C(=O)O)cc1 (stereo not shown)	1.03
Nc1nc2[nH]cc(CCc3ccc(C(=O)N[C@@H](CCC(=O)O)C(=O)O)cc3)c2c(=O)[nH]1	0.16
Nc1nc2c(c(=O)[nH]1)N(C=O)C(CNc1ccc(C(=O)N[C@@H](CCC(=O)O)C(=O)O)cc1)CN2 (stereo partly shown)	0.92
NCCOCCOCC(=O)Nc1nc2ncc(CNc3ccc(C(=O)NC(CCC(=O)O)C(=O)O)cc3)nc2c(=O)[nH]1 (stereo not shown)	0.49

###

study_system: HeLa cell extract proteins (Homo sapiens, UniProt Q9NVI7)
Construct: endogenous in cells; host or cells: HeLa cell extract
Sequence (Q9NVI7 whole entry): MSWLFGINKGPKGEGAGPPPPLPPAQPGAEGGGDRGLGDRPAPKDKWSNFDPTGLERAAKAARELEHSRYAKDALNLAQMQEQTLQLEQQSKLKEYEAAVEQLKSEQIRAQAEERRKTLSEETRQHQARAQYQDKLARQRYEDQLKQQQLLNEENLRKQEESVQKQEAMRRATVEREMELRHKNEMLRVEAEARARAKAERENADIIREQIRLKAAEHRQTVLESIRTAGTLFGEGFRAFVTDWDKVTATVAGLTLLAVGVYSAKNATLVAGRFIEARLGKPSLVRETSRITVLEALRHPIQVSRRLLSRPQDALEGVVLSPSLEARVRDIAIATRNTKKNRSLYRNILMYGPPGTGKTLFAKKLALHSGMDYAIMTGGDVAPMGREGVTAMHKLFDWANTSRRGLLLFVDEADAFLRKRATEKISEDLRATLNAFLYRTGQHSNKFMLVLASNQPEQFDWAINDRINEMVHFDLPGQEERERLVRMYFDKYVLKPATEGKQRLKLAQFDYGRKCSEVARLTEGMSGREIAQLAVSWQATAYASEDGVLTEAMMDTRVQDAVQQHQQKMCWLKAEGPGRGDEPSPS
Assay type: binding
setup_conditions: HeLa; protein ATAD3A

compound	fold changes relative to vehicle control
CCCCCCOc1cccc(Cc2cnc(N)nc2N)c1	1.15
NCCCNc1ccc(C(=O)NC(CCC(=O)O)C(=O)O)cc1 (stereo not drawn)	1.13
Nc1nc2cccc(-c3ccccc3)c2n1Cc1ccc(Cl)c(Cl)c1	1.05
NCCOCCOCC(=O)Nc1nc2ncc(CNc3ccc(C(=O)NC(CCC(=O)O)C(=O)O)cc3)nc2c(=O)[nH]1 (stereo not drawn)	1.17
CCCCCCOc1ccc(Cc2cnc(N)nc2N)cc1	1.13
Nc1nc2c(c(=O)[nH]1)N(C=O)C(CNc1ccc(C(=O)N[C@@H](CCC(=O)O)C(=O)O)cc1)CN2 (stereo partly drawn)	0.98

###

System: TB927.8.6460
test_details: Multitargeted bead mixture competition
Type: binding, T. brucei
setup_conditions: multitargeted bead mixture; free ligand 100 μM; T. brucei lysate; TB927.8.6460
Recorded measurements of percentage of competition from bead binding, one per entry
quantity_name: percentage of competition from bead binding (%)

compound	result_value
Nc1nc2cccc(-c3ccccc3)c2n1Cc1ccc(Cl)c(Cl)c1	15
Nc1nc(O)c2c(CCc3ccccc3)c[nH]c2n1	65
Cc1ccc2nc(N)[nH]c(=O)c2c1Sc1ccncc1	68
CN(Cc1cnc2nc(N)nc(N)c2n1)c1ccc(C(=O)N[C@@H](CCC(=O)O)C(=O)O)cc1 [MTX, methotrexate]	54

###

study_system: HeLa cell extract proteins (Homo sapiens, UniProt O60313)
Construct: endogenous in cells; host or cells: HeLa cell extract
Sequence (O60313 88-960): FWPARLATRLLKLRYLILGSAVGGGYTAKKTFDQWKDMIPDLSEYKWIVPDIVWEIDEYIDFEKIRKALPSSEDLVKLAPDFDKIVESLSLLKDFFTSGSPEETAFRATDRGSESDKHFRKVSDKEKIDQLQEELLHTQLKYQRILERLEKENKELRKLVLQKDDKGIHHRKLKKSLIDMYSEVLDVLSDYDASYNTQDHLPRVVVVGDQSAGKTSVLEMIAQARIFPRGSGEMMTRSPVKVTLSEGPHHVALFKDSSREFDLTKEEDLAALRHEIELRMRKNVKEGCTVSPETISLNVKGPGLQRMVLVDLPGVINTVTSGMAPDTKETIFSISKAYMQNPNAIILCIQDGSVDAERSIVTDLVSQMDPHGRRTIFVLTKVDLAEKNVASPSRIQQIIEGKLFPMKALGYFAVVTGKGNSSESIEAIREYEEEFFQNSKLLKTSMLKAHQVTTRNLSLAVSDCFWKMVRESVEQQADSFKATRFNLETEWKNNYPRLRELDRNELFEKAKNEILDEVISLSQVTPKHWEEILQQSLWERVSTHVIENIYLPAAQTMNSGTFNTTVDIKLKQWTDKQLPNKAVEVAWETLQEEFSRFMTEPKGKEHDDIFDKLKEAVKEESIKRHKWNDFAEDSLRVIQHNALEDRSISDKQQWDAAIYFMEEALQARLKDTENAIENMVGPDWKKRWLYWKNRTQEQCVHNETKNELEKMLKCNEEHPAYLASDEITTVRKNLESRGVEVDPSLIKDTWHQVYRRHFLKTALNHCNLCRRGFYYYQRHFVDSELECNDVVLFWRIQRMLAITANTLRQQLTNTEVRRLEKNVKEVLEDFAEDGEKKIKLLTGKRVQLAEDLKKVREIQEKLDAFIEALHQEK
Assay type: binding
setup_conditions: HeLa; protein OPA1
Recorded measurements of fold changes relative to vehicle control, one per entry

molecule	fold changes relative to vehicle control
Nc1nc2c(c(=O)[nH]1)N(C=O)C(CNc1ccc(C(=O)N[C@@H](CCC(=O)O)C(=O)O)cc1)CN2 (stereo partly drawn) [LEU, leucovorin]	0.88
NCCOCCOCC(=O)Nc1nc2ncc(CNc3ccc(C(=O)NC(CCC(=O)O)C(=O)O)cc3)nc2c(=O)[nH]1 (stereo not drawn) [compound 6]	0.87
CCCCCCOc1ccc(Cc2cnc(N)nc2N)cc1 [compound 1]	0.82
NCCCNc1ccc(C(=O)NC(CCC(=O)O)C(=O)O)cc1 (stereo not drawn) [compound 7]	0.94
CCCCCCOc1cccc(Cc2cnc(N)nc2N)c1 [compound 2]	1.02
Nc1nc2cccc(-c3ccccc3)c2n1Cc1ccc(Cl)c(Cl)c1 [compound 3]	1.01
